Source: BindingDB's records for doi:10.1016/j.bmc.2008.06.044

Assay: Inhibition of recombinant galectin 1 in human O type red blood cells by hemagglutinination assay
ASSAY_READOUT: IC50 (µM)

Need IC50, item `OC[C@@H]1O[C@H](n2cc(CS[C@@H]3O[C@H](CO)[C@@H](O[C@@H]4O[C@H](CO)[C@H](O)[C@H](O)[C@H]4O)[C@H](O)[C@H]3O)nn2)[C@@H](O)[C@H](O)[C@@H]1O`
600

P: OC[C@@H]1O[C@H](SCC#CC#CCS[C@@H]2O[C@H](CO)[C@H](O)[C@H](O)[C@H]2O)[C@@H](O)[C@@H](O)[C@@H]1O [Dimeric galactoside]
Q: OC[C@@H]1O[C@H](O[C@@H]2[C@@H](O)[C@H](O)[C@@H](SCC#CC#CCS[C@@H]3O[C@H](CO)[C@@H](O[C@@H]4O[C@H](CO)[C@H](O)[C@H](O)[C@H]4O)[C@H](O)[C@H]3O)O[C@H]2CO)[C@@H](O)[C@H](O)[C@@H]1O
R: C#CCS[C@@H]1O[C@H](CO)[C@@H](O[C@@H]2O[C@H](CO)[C@H](O)[C@H](O)[C@H]2O)[C@H](O)[C@H]1O
Hey, quick one: sort these by IC50, largest value first please. Put the labels in the order asked and list them.
P, R, Q
(P: 5000 µM, R: 600 µM, Q: 300 µM)

###

Target: Galectin-3 (Homo sapiens)
Sequence (P17931 whole entry): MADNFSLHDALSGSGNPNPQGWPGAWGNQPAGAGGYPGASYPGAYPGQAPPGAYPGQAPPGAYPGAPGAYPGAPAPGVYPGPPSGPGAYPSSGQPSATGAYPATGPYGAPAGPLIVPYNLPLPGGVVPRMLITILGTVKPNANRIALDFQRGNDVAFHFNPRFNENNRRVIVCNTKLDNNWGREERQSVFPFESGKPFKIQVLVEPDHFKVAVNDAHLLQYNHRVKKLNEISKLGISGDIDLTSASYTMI
Assay: Inhibition of recombinant galectin 3 in human O type red blood cells by hemagglutinination assay
ASSAY_READOUT: IC50 (mM)
Entry rule: numbers only, all in mM.

Which IC50 value is on record for OC[C@H]1O[C@H](O)[C@H](O)[C@@H](O)[C@H]1O [GALACTOSE] ?
50

###

Assay: Inhibition of recombinant galectin 3 in human O type red blood cells by hemagglutinination assay
pIC50: −log10 of the molar value.
ASSAY_READOUT: pIC50

Consider the worked cases shown below.
Tell me the measured pIC50 of `OC[C@@H]1O[C@H](O[C@@H]2[C@@H](O)[C@H](O)[C@@H](SCC#CC#CCS[C@@H]3O[C@H](CO)[C@@H](O[C@@H]4O[C@H](CO)[C@H](O)[C@H](O)[C@H]4O)[C@H](O)[C@H]3O)O[C@H]2CO)[C@@H](O)[C@H](O)[C@@H]1O` , please.
3.80

I would be grateful if you could share the reported pIC50 for `OC[C@@H]1O[C@H](O[C@@H]2[C@@H](O)[C@H](O)[C@@H](n3cc(CS[C@@H]4O[C@H](CO)[C@H](O)[C@H](O)[C@H]4O)nn3)O[C@H]2CO)[C@@H](O)[C@H](O)[C@@H]1O` .
3.22

pIC50 for `COC(=O)/C=C/C[C@@H]1O[C@H](CO)[C@H](O)[C@H](O)[C@H]1O` ?
2.30

a: C=C(C[C@@H]1O[C@H](CO)[C@H](O)[C@H](O)[C@H]1O)c1ccc(OC)cc1
b: OC[C@@H]1O[C@H](O[C@@H]2[C@@H](O)[C@H](O)[C@@H](n3cc(CS[C@@H]4O[C@H](CO)[C@@H](O[C@@H]5O[C@H](CO)[C@H](O)[C@H](O)[C@H]5O)[C@H](O)[C@H]4O)nn3)O[C@H]2CO)[C@@H](O)[C@H](O)[C@@H]1O
c: C#CCS[C@@H]1O[C@H](CO)[C@@H](O[C@@H]2O[C@H](CO)[C@H](O)[C@H](O)[C@H]2O)[C@H](O)[C@H]1O
Please order the records by their reported pIC50, lowest number first. Order the labels as requested and list them.
a, c, b

###

Assay: Inhibition of recombinant galectin 3 in human O type red blood cells by hemagglutinination assay
pIC50: −log10 of the molar value.
ASSAY_READOUT: pIC50

Give its pIC50 value. Item: `C#CCS[C@@H]1O[C@H](CO)[C@H](O)[C@H](O)[C@H]1O`
2.60

1: OC[C@@H]1O[C@H](n2cc(CS[C@@H]3O[C@H](CO)[C@H](O)[C@H](O)[C@H]3O)nn2)[C@@H](O)[C@H](O)[C@@H]1O
2: OC[C@@H]1O[C@H](n2cc(CS[C@@H]3O[C@H](CO)[C@@H](O[C@@H]4O[C@H](CO)[C@H](O)[C@H](O)[C@H]4O)[C@H](O)[C@H]3O)nn2)[C@@H](O)[C@H](O)[C@@H]1O
3: CC(=O)C[C@@H]1O[C@H](CO)[C@H](O)[C@H](O)[C@H]1O
Falling order of pIC50, please. Hello, could you send the labels back in the order asked? Thank you.
2, 1, 3
(2: 3.52, 1: 2.60, 3: 2.30)

###

Target: Galectin-1 (Homo sapiens)
Sequence (P09382 whole entry): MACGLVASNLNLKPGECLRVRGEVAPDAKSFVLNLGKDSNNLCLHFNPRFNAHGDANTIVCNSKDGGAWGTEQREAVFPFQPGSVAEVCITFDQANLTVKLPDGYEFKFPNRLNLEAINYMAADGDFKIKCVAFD
Assay: Inhibition of recombinant galectin 1 in human O type red blood cells by hemagglutinination assay
ASSAY_READOUT: pIC50
The meaning of pIC50 here: minus log10 of the concentration in molar units.

Need pIC50 of OC[C@H]1O[C@H](O)[C@H](O)[C@@H](O)[C@H]1O [GALACTOSE] , thanks.
1.30

###

Test: Inhibition of recombinant galectin 1 in human O type red blood cells by hemagglutinination assay
pIC50: −log10 of the molar value.
ASSAY_READOUT: pIC50

Recorded pIC50, per entry:
So what does the record say about pIC50 for `COC(=O)/C=C/C[C@@H]1O[C@H](CO)[C@H](O)[C@H](O)[C@H]1O` ?
2.30

Which pIC50 reading was recorded for the compound `OC[C@@H]1O[C@H](O[C@@H]2[C@@H](O)[C@H](O)[C@@H](n3cc(CS[C@@H]4O[C@H](CO)[C@@H](O[C@@H]5O[C@H](CO)[C@H](O)[C@H](O)[C@H]5O)[C@H](O)[C@H]4O)nn3)O[C@H]2CO)[C@@H](O)[C@H](O)[C@@H]1O` ?
3.52

Quick one: pIC50 of `C=C(C[C@@H]1O[C@H](CO)[C@H](O)[C@H](O)[C@H]1O)c1cccc([N+](=O)[O-])c1` ?
2.30

Record request: pIC50 value, item `OC[C@@H]1O[C@H](O[C@@H]2[C@@H](O)[C@H](O)[C@@H](n3cc(CS[C@@H]4O[C@H](CO)[C@H](O)[C@H](O)[C@H]4O)nn3)O[C@H]2CO)[C@@H](O)[C@H](O)[C@@H]1O`
3.52

I: OC[C@H]1O[C@@H](C/C=C/c2cccc(/C=C/C[C@@H]3O[C@H](CO)[C@H](O)[C@H](O)[C@H]3O)c2)[C@H](O)[C@@H](O)[C@H]1O
II: OC[C@@H]1O[C@H](SCC#Cc2ccc(C#CCS[C@@H]3O[C@H](CO)[C@H](O)[C@H](O)[C@H]3O)cc2)[C@@H](O)[C@H](O)[C@@H]1O
Would you kindly point out which of I and II has the smaller pIC50 figure? Choose, then provide that item's label.
I

###

Assay: Inhibition of recombinant galectin 1 in human O type red blood cells by hemagglutinination assay
ASSAY_READOUT: IC50

Would you mind telling me what IC50 value was observed for `CC(=O)C[C@@H]1O[C@H](CO)[C@H](O)[C@H](O)[C@H]1O` ?
> 5 mM

Look up IC50: `C#CCS[C@@H]1O[C@H](CO)[C@H](O)[C@H](O)[C@H]1O`
> 5 mM

---
What value of IC50 has been reported for the following molecule? `C=C(C[C@@H]1O[C@H](CO)[C@H](O)[C@H](O)[C@H]1O)c1ccc(OC)cc1`
> 5 mM

###

Test: Inhibition of recombinant galectin 3 in human O type red blood cells by hemagglutinination assay
IC50 overview

Entry `OC[C@@H]1O[C@H](SCC#Cc2ccc(C#CCS[C@@H]3O[C@H](CO)[C@H](O)[C@H](O)[C@H]3O)cc2)[C@@H](O)[C@H](O)[C@@H]1O` : reported IC50 = ?
> 5 mM

Request the reported IC50 associated with `OC[C@H]1O[C@@H](C/C=C/c2ccccc2)[C@H](O)[C@@H](O)[C@H]1O`
> 5 mM

With those in mind, consider the next compound.
Recorded IC50 for `OC[C@H]1O[C@@H](C/C=C/c2cccc(/C=C/C[C@@H]3O[C@H](CO)[C@H](O)[C@H](O)[C@H]3O)c2)[C@H](O)[C@@H](O)[C@H]1O` , please?
> 5 mM

###

Assay: Inhibition of recombinant galectin 3 in human O type red blood cells by hemagglutinination assay
# IC50 listing for each entry below

Field request: IC50 | item: OC[C@@H]1O[C@H](SCC#CC#CCS[C@@H]2O[C@H](CO)[C@H](O)[C@H](O)[C@H]2O)[C@@H](O)[C@@H](O)[C@@H]1O [Dimeric galactoside]
> 5 mM

Quick one: IC50 for `C=C(C[C@@H]1O[C@H](CO)[C@H](O)[C@H](O)[C@H]1O)c1cccc([N+](=O)[O-])c1` ?
> 5 mM

Please look up its IC50: `C/C=C/[C@@H]1O[C@H](CO)[C@H](O)[C@H](O)[C@H]1O`
> 5 mM
